- TARGET_DESC: pooled human IgG (human IgG1, 2, 3 and 4)
Reported Enzyme Activity Endpoint Assay (purified): IgG values for a set of proteins
Use ng/µL as the unit, but write only the number.

Briefly, Enzyme Activity Endpoint Assay (purified): IgG measured for PRT-661 (protein) MQITSVWTKGVTPLTPEQFRYNNEDVIHAPYLANQGWYDITKTFDGKDNLLCGAATAGNMLHWWFDQNKTEIEAYLSKHPEKQKIIFNNQELFDLKKAIDTKDSQTNSQLFNYFRDKAFPNLSARQLGVMPDLVLDMFINGYYLNVFKTQSTDVNRPYQDKDKRGGIFDAVFTRGDQTTLLTARHDLKNKGLNDISTIIKQELTEGRALALSHTYANVSISHVINLWGADFNAEGNLEAIYVTDSDSNASIGMKKYFVGINAAGHVAISAKKIEGENIGAQVLGLFTLSSGKDIWQKLSLEHHHHHH : 0
